assay method text: Metabolic stability in rat liver microsome assessed as compound remaining at 5 uM after 30 mins
Format: ADME
stated conditions: liver microsomes, read-out: Stability
metric: remaining at 0.5 h, 5 µM (%)
Record the value in %, omitting the unit from your answer.

Exam item: Specify measured remaining at 0.5 h, 5 µM for "Cn1cc(/C=C/C(=O)NS(=O)(=O)c2cc(F)c(F)cc2F)c2c(Oc3ccc(Cl)cc3Cl)cccc21" .
Marked response: 39.1

Exam item: Specify measured remaining at 0.5 h, 5 µM for "Cn1cc(/C=C/C(=O)NS(=O)(=O)c2ccc(F)c(F)c2)c2c(Oc3ccc(Cl)cc3F)cccc21" .
Marked response: 40

Exam item: Specify measured remaining at 0.5 h, 5 µM for "Cn1cc(/C=C/C(=O)NS(=O)(=O)c2ccc(F)c(F)c2)c2c(Oc3ccc(Cl)c(Cl)c3)cccc21" .
Marked response: 14.9

Exam item: Specify measured remaining at 0.5 h, 5 µM for "Cn1cc(/C=C/C(=O)NS(=O)(=O)c2ccc(F)c(F)c2)c2c(Oc3ccc4ccccc4c3)cccc21" .
Marked response: 24.6

Exam item: Specify measured remaining at 0.5 h, 5 µM for "Cn1cc(/C=C/C(=O)NS(=O)(=O)c2ccc(F)c(F)c2)c2c(Oc3ccc(Cl)cc3Cl)cccc21" .
Marked response: 30.6

Exam item: Specify measured remaining at 0.5 h, 5 µM for "Cn1cc(/C=C/C(=O)NS(=O)(=O)c2cccc(Cl)c2)c2c(Oc3ccc4ccccc4c3)cccc21" .
Marked response: 33.3

Exam item: Specify measured remaining at 0.5 h, 5 µM for "Cn1cc(/C=C/C(=O)NS(=O)(=O)c2cc(F)c(F)cc2F)c2c(Oc3ccc4ccccc4c3)cccc21" .
Marked response: 32

Exam item: Specify measured remaining at 0.5 h, 5 µM for "Cn1cc(/C=C/C(=O)NS(=O)(=O)c2ccc(F)c(F)c2)c2c(Oc3ccc(F)c(Cl)c3)cccc21" .
Marked response: 32

----------
assayed target: Prostaglandin E2 receptor EP3 subtype (Homo sapiens, UniProt P43115)
Sequence (P43115 whole entry): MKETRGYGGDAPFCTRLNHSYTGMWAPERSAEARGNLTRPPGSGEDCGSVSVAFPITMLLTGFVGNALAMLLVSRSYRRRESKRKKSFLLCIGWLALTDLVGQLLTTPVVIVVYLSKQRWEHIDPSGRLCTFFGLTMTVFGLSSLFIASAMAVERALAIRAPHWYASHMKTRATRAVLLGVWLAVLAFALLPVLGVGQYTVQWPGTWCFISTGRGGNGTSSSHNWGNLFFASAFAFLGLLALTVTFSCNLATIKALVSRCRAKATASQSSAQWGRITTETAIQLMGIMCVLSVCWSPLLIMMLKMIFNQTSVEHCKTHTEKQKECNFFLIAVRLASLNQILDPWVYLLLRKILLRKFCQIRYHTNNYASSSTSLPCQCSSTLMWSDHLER
assay method text: Displacement of [3H]PGE2 from human EP3 receptor at 20 uM in presence of normal buffer
metric: IC50 (nM)
Record the value in nM, omitting the unit from your answer.

Exam item: Specify measured IC50 for "Cn1cc(/C=C/C(=O)NS(=O)(=O)c2ccc(Cl)cc2)c2c(Oc3ccc4ccccc4c3)cccc21" .
Marked response: 21.9

Exam item: Specify measured IC50 for "Cn1cc(/C=C/C(=O)NS(=O)(=O)c2cc(F)c(F)cc2F)c2c(Oc3ccc(F)cc3Cl)cccc21" .
Marked response: 18.1

Exam item: Specify measured IC50 for "Cn1cc(/C=C/C(=O)NS(=O)(=O)c2cccc(Cl)c2)c2c(Oc3ccc4ccccc4c3)cccc21" .
Marked response: 15.7

Exam item: Specify measured IC50 for "Cn1cc(/C=C/C(=O)NS(=O)(=O)c2cc(F)cc(F)c2)c2c(Oc3ccc4ccccc4c3)cccc21" .
Marked response: 44.9

----------
assay method text: Metabolic stability in dog liver microsome assessed as compound remaining at 5 uM after 30 mins
Type: ADME, Canis lupus familiaris
stated conditions: liver microsomes, read-out: Stability
metric: remaining at 0.5 h, 5 µM (%)
Record the value in %, omitting the unit from your answer.

Exam item: Specify measured remaining at 0.5 h, 5 µM for "Cn1cc(/C=C/C(=O)NS(=O)(=O)c2cccc(Cl)c2)c2c(Oc3ccc4ccccc4c3)cccc21" .
Marked response: 80.6

Exam item: Specify measured remaining at 0.5 h, 5 µM for "Cn1cc(/C=C/C(=O)NS(=O)(=O)c2ccc(F)c(F)c2)c2c(Oc3ccc(Cl)cc3Cl)cccc21" .
Marked response: 104

Exam item: Specify measured remaining at 0.5 h, 5 µM for "Cn1cc(/C=C/C(=O)NS(=O)(=O)c2ccc(F)c(F)c2)c2c(Oc3ccc4ccccc4c3)cccc21" .
Marked response: 69.7

Exam item: Specify measured remaining at 0.5 h, 5 µM for "Cn1cc(/C=C/C(=O)NS(=O)(=O)c2cc(F)c(F)cc2F)c2c(Oc3ccc4ccccc4c3)cccc21" .
Marked response: 90.4

----------
assayed target: UniProt:P43115
assay method text: Ratio IC50 for human EP3 receptor in presence of human serum to IC50 for human EP3 in absence of human serum
So I've got a bunch of molecules here, and I need their Ratio IC50 values.
Output spec: single numeric token, no unit.

Exam item: Report the value of Ratio IC50 obtained on UniProt:P43115 for "Cn1cc(/C=C/C(=O)NS(=O)(=O)c2ccc(F)cc2)c2c(Oc3ccc4ccccc4c3)cccc21" .
Marked response: 19.4

Exam item: Report the value of Ratio IC50 obtained on UniProt:P43115 for "Cn1cc(/C=C/C(=O)NS(=O)(=O)c2ccc(Cl)cc2)c2c(Oc3ccc4ccccc4c3)cccc21" .
Marked response: 50.2

Exam item: Report the value of Ratio IC50 obtained on UniProt:P43115 for "Cn1cc(/C=C/C(=O)NS(=O)(=O)c2cc(F)c(F)cc2F)c2c(Oc3ccc(Cl)cc3Cl)cccc21" .
Marked response: 5.2

Exam item: Report the value of Ratio IC50 obtained on UniProt:P43115 for "Cn1cc(/C=C/C(=O)NS(=O)(=O)c2cc(F)c(F)cc2F)c2c(Oc3ccc(Cl)cc3F)cccc21" .
Marked response: 35.6

----------
assayed target: Prostaglandin E2 receptor EP3 subtype (Homo sapiens) (UniProt P43115)
Sequence (P43115 whole entry): as above
assay method text: Ratio IC50 for human EP3 receptor in presence of human serum to IC50 for human EP3 in absence of human serum
metric: Ratio IC50
Output spec: single numeric token, no unit.

Exam item: Specify measured Ratio IC50 for "Cn1cc(/C=C/C(=O)NS(=O)(=O)c2cc(F)c(F)cc2F)c2c(Oc3cnc4ccccc4n3)cccc21" .
Marked response: 17.7

Exam item: Specify measured Ratio IC50 for "Cn1cc(/C=C/C(=O)NS(=O)(=O)c2ccc(F)c(F)c2)c2c(Oc3ccc4ccccc4c3)cccc21" .
Marked response: 2.1

Exam item: Specify measured Ratio IC50 for "Cn1cc(/C=C/C(=O)NS(=O)(=O)c2cc(F)c(F)cc2F)c2c(Oc3ccc4ccccc4c3)cccc21" .
Marked response: 3.1

Exam item: Specify measured Ratio IC50 for "Cn1cc(/C=C/C(=O)NS(=O)(=O)c2ccc(F)c(F)c2)c2c(Oc3ccc(F)cc3Cl)cccc21" .
Marked response: 10.5

----------
So I've got a bunch of molecules here, and I need their Ratio IC50 values.
assayed target: UniProt:P43115
assay method text: Ratio IC50 for human EP3 receptor in presence of human serum to IC50 for human EP3 in absence of human serum
Output spec: single numeric token, no unit.

Exam item: Report the value of Ratio IC50 obtained on UniProt:P43115 for "Cn1cc(/C=C/C(=O)NS(=O)(=O)c2ccc(F)c(F)c2)c2c(Oc3ccc(Cl)cc3)cccc21" .
Marked response: 28.4

Exam item: Report the value of Ratio IC50 obtained on UniProt:P43115 for "Cn1cc(/C=C/C(=O)NS(=O)(=O)c2cc(F)c(F)cc2F)c2c(Oc3ccc(F)cc3Cl)cccc21" .
Marked response: 17.5

Exam item: Report the value of Ratio IC50 obtained on UniProt:P43115 for "Cn1cc(/C=C/C(=O)NS(=O)(=O)c2ccc(F)c(F)c2)c2c(Oc3ccc4ncccc4c3)cccc21" .
Marked response: 68.7

Exam item: Report the value of Ratio IC50 obtained on UniProt:P43115 for "Cn1cc(/C=C/C(=O)NS(=O)(=O)c2ccc(F)c(F)c2)c2c(Oc3ccc(Cl)c(F)c3)cccc21" .
Marked response: 26.3

Exam item: Report the value of Ratio IC50 obtained on UniProt:P43115 for "Cn1cc(/C=C/C(=O)NS(=O)(=O)c2cccc(F)c2)c2c(Oc3ccc4ccccc4c3)cccc21" .
Marked response: 6.6

Exam item: Report the value of Ratio IC50 obtained on UniProt:P43115 for "Cn1cc(/C=C/C(=O)NS(=O)(=O)c2cc(F)c(F)cc2F)c2c(Oc3ccc4ncccc4c3)cccc21" .
Marked response: 19.8

Exam item: Report the value of Ratio IC50 obtained on UniProt:P43115 for "Cn1cc(/C=C/C(=O)NS(=O)(=O)c2cc(F)ccc2F)c2c(Oc3ccc4ccccc4c3)cccc21" .
Marked response: 24.3

Exam item: Report the value of Ratio IC50 obtained on UniProt:P43115 for "Cn1cc(/C=C/C(=O)NS(=O)(=O)c2cc(F)cc(F)c2)c2c(Oc3ccc4ccccc4c3)cccc21" .
Marked response: 3.5

----------
assay method text: Metabolic stability in monkey liver microsome assessed as compound remaining at 5 uM after 30 mins
Format: ADME, Macaca mulatta
stated conditions: rhesus monkey, liver microsomes; read-out: Stability
So I've got a bunch of compounds here, and I need their remaining at 0.5 h, 5 µM values.
Record the value in %, omitting the unit from your answer.

Exam item: Specify measured remaining at 0.5 h, 5 µM for "Cn1cc(/C=C/C(=O)NS(=O)(=O)c2ccc(F)c(F)c2)c2c(Oc3ccc4ccccc4c3)cccc21" .
Marked response: 59

Exam item: Specify measured remaining at 0.5 h, 5 µM for "Cn1cc(/C=C/C(=O)NS(=O)(=O)c2ccc(F)c(F)c2)c2c(Oc3ccc(Cl)cc3Cl)cccc21" .
Marked response: 53.8
